target: Serine/threonine-protein kinase Nek1 (Homo sapiens) (UniProt Q96PY6); conditions: at 0.1 µM;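 further: mean percent inhibition of NEK1 kinase, from the GSK PKIS (published kinase inhibitor set) screening panel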
Sequence (Q96PY6 whole entry): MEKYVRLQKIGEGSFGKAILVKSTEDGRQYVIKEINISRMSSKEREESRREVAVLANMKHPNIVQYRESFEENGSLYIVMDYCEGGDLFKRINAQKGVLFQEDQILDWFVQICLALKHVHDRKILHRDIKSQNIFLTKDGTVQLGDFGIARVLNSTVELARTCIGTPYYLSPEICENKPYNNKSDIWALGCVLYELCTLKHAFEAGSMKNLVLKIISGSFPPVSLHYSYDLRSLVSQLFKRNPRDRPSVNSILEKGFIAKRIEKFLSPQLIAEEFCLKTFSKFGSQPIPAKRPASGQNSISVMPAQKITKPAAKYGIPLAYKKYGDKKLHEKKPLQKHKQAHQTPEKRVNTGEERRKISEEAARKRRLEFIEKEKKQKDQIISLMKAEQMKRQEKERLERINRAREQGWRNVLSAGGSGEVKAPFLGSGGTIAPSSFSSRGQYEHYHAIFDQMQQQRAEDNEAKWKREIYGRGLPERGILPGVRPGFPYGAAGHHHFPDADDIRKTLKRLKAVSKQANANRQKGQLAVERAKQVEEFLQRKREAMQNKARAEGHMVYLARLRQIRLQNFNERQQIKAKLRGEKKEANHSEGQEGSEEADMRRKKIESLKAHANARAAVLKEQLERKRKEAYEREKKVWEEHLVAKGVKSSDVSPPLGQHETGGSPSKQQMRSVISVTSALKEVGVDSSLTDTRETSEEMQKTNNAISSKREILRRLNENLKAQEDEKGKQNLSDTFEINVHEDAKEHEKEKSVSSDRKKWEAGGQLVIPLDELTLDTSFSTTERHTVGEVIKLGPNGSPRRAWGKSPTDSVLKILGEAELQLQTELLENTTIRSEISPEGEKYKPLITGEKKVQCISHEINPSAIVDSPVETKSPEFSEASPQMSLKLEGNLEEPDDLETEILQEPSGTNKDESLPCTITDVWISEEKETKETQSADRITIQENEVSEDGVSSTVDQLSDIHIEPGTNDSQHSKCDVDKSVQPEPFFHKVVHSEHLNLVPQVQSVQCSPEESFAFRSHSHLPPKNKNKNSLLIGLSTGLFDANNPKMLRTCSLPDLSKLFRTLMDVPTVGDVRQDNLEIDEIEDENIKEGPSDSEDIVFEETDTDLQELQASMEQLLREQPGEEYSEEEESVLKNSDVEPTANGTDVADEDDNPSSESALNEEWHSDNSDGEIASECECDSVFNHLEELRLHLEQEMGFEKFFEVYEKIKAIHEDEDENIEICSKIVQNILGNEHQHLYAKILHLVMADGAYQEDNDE
measured-endpoint: inhibition (%)
Kindly provide the numeric value in % only, without the unit symbol.

[ask] Name the reported inhibition value associated with the compound COc1cccc(-n2ncc3c(N/N=C/c4ccc(C(=O)NCCN(C)C)cc4)ncnc32)c1
[reply] 2.06

[ask] Name the reported inhibition value associated with the compound O=C(O[C@H]1CN[C@H](C#Cc2cc3ncnc(Nc4ccc5c(ccn5Cc5cc(F)ccc5F)c4)c3s2)C1)N1CCOCC1
[reply] 2.94

[ask] Name the reported inhibition value associated with the compound Cc1cc(O)cc(C)c1/C=C/c1cncc(C(N)=O)c1
[reply] 1.8

[ask] Name the reported inhibition value associated with the compound N#Cc1ccc2c(-c3ccnc(NC4CC4)n3)c(-c3ccc(F)cc3)nn2c1
[reply] 0.87

[ask] Name the reported inhibition value associated with the compound OCCCNc1nccc(-c2c(-c3ccc(F)cc3)nn3cc(C(F)(F)F)ccc23)n1
[reply] -0.37

Data origin, for the record: ChEMBL document CHEMBL1961873
